Target: T1, IGF1R-Fc (extracellular domain of human IGF1R aa 1-932 fused to hinge and constant regions of human IgG1) (human, UniProt P08069 31-932)
T1 construct: range 1-932; made in house by transient transfection, purified on Protein A; also called IGF-IR-Fc; not shown: hinge and constant regions of human IgG1
Test: SPR Biacore, IGF1R-Fc; against I1-GS10-E5 pegylated
reported-property: Δkd (fold)
Your answer is read as fold, so omit the unit and give the number.

Below, 6 binders whose answers are already recorded.
I1(S62C)-GS10-E5 pegylated (designed binder, PEG on Cys at position 62 of I1 (position of SEQ ID NO: 1), also called I1(S62C)-GS10-E5(5)) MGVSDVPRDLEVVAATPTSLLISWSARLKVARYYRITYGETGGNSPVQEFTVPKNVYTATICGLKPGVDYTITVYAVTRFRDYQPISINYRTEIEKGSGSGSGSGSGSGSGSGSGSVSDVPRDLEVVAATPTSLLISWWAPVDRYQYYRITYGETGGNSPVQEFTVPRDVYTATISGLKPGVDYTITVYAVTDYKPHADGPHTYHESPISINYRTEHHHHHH | 1.1
I1-GSGCGS8-E5 pegylated (designed binder, PEG on the Cys of the GSGCGS8 linker, alternative clone of I1-GS10-E5 pegylated; tail of first monomer EIEK (D to E); also called I1-GSGCGS8-E5(3)) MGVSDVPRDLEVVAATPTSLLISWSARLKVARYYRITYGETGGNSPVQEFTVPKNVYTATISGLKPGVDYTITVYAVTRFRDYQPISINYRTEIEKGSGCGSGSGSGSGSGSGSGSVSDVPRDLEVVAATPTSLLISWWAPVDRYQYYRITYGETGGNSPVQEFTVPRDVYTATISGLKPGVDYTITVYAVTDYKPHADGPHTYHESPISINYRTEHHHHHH | 1.1
I1-GS10-E5(S62C) pegylated (designed binder, PEG on Cys at position 62 of E5 (position of SEQ ID NO: 1), also called I1-GS10-E5(S62C)(6)) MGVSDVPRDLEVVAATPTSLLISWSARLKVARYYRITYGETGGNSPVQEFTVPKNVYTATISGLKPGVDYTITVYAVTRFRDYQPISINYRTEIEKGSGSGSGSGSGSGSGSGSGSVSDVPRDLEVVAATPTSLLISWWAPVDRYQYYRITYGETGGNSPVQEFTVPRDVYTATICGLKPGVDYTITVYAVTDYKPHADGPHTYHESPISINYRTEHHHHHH | 0.9
I1(S91C)-GS10-E5 pegylated (designed binder, PEG on Cys at position 91 of I1 (position of SEQ ID NO: 1), also called I1(S91C)-GS10-E5(7)) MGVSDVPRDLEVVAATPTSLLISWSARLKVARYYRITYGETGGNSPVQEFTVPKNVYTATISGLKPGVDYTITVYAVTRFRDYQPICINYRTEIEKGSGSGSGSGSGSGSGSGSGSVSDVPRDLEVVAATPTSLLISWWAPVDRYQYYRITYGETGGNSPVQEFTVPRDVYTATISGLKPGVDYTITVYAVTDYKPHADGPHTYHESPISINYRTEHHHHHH | 0.4
I1-GS10-E5(S91C) pegylated (designed binder, PEG on Cys at position 91 of E5 (position of SEQ ID NO: 1), also called I1-GS10-E5(S91C)(8)) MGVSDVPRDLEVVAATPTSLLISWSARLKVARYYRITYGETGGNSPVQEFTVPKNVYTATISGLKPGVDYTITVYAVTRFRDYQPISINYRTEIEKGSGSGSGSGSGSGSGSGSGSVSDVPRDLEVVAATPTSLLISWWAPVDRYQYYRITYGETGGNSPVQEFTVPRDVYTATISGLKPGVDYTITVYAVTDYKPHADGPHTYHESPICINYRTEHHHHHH | 0.9
I1-GS10-E5-GSGC pegylated (designed binder, PEG on the Cys of the GSGC tail of E5, alternative clone of I1-GS10-E5 pegylated; also called I1-GS10-E5-GSGC(4)) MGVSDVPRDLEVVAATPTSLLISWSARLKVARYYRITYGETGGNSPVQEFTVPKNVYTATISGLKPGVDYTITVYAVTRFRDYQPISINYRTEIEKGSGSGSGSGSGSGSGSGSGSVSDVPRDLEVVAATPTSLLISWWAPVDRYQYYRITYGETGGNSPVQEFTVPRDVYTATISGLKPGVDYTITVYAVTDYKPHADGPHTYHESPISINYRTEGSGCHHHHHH | 1

Now, please, on to the next binder.
Exercise: So what's the measured Δkd (fold) for this one? I1-GS10-E5 pegylated without the 6HIS tag (designed binder, PEG on the Cys of the C-terminal Cys tail, Whether the D-to-E change in the tail of the first monomer applies to this construct is not clear; also called I1-GS10-E5 pegylated(1)) MGVSDVPRDLEVVAATPTSLLISWSARLKVARYYRITYGETGGNSPVQEFTVPKNVYTATISGLKPGVDYTITVYAVTRFRDYQPISINYRTEIDKGSGSGSGSGSGSGSGSGSGSVSDVPRDLEVVAATPTSLLISWWAPVDRYQYYRITYGETGGNSPVQEFTVPRDVYTATISGLKPGVDYTITVYAVTDYKPHADGPHTYHESPISINYRTEIDKPCQ
Key: 0.9
